Cited source: patent US20250276973A1

assay: Plasma concentration determination test after oral administration; type: in vivo; conditions: male, beagle, dog, plasma, po, 20 mg/kg, male beagle dogs, gelatin capsule, 20 mg/kg in terms of free form, hypochlorhydria conditions, three dogs, read-out: tmax
metric: tmax

Asked: Name the reported tmax value associated with the compound C#Cc1c(-c2cnc3ccccc3c2)c2c(N)ncnc2n1C12CCC(NC(=O)c3cnc(C)cn3)(CC1)C2
Given back: 4 h

====

test: Plasma concentration determination test after oral administration; assay type: in vivo; conditions: male, beagle, dog, plasma, po, 20 mg/kg, male beagle dogs, gelatin capsule, 20 mg/kg in terms of free form, hypochlorhydria conditions, three dogs
metric: AUC(0-t) (µM·h)
Answers are plain numbers, in µM·h.

Asked: Which AUC(0-t) value is on record for C#Cc1c(-c2cnc3ccccc3c2)c2c(N)ncnc2n1C12CCC(NC(=O)c3cnc(C)cn3)(CC1)C2 ?
Given back: 13
